test: Half life (t1/2) value of the compound.; type: ADME
The entries below come with measured half-life values attached.

Solved cases below.
> print(dat)
                               smiles.input  endpoint.value
1  C[N+](C)(CCCCCC[N+](C)(C)CCCN1C(=O)c2ccccc2C1=O)CCCN1C(=O)c2ccccc2C1=O.[Br-].[Br-]            18 h
2  C[N+](C)(CCCN1C(=O)c2ccccc2C1=O)CCC[N+](C)(C)CCCN1C(=O)c2ccccc2C1=O.[Br-].[Br-]          14.5 h

Let us move to another entry and its half-life.
Ask: What does the data say about its half-life? Entry: `C[N+](C)(CCCCC[N+](C)(C)CCCN1C(=O)c2ccccc2C1=O)CCCN1C(=O)c2ccccc2C1=O.[Br-].[Br-]`
Result: 17.4 h

====

target: Muscarinic acetylcholine receptor M2 (Sus scrofa, UniProt P06199); assay: Allosteric potency against the dissociation of radioligand [3H]N-methylscopolamine from the porcine cardiac Muscarinic acetylcholine receptor M2
Binary label based on EC50 with cut-off 1 µM: below gives True, not below gives False.

> print(dat)
                               smiles.input  class.name
1  O=C1c2ccccc2C(=O)N1CC[n+]1ccc(CCCc2cc[n+](CCN3C(=O)c4ccccc4C3=O)cc2)cc1       False
2  O=C1c2ccccc2C(=O)N1CCCO/N=C/c1cc[n+](CCCC[n+]2ccc(/C=N/OCCCN3C(=O)c4ccccc4C3=O)cc2)cc1        True
3  C[N+](C)(CCCCCC[N+](C)(C)CCCN1C(=O)c2ccccc2C1=O)CCCN1C(=O)c2ccccc2C1=O.[Br-].[Br-]       False
4  C[N+](C)(CCCN1C(=O)c2ccccc2C1=O)CCC[N+](C)(C)CCCN1C(=O)c2ccccc2C1=O.[Br-].[Br-]       False
5  O=C1c2ccccc2C(=O)N1C[n+]1ccc(CCCc2cc[n+](CN3C(=O)c4ccccc4C3=O)cc2)cc1       False
6  C[N+](C)(CCCCCCCC[N+](C)(C)CCCN1C(=O)c2ccccc2C1=O)CCCN1C(=O)c2ccccc2C1=O.[Br-].[Br-]        True

Ask: Does the reported EC50 of the following compound sit strictly below 1 µM? `O=C1c2ccccc2C(=O)N1CCC[n+]1ccc(CCCc2cc[n+](CCCN3C(=O)c4ccccc4C3=O)cc2)cc1`
Result: False

====

Target: Muscarinic acetylcholine receptor M2 (Sus scrofa)
Sequence (P06199 whole entry): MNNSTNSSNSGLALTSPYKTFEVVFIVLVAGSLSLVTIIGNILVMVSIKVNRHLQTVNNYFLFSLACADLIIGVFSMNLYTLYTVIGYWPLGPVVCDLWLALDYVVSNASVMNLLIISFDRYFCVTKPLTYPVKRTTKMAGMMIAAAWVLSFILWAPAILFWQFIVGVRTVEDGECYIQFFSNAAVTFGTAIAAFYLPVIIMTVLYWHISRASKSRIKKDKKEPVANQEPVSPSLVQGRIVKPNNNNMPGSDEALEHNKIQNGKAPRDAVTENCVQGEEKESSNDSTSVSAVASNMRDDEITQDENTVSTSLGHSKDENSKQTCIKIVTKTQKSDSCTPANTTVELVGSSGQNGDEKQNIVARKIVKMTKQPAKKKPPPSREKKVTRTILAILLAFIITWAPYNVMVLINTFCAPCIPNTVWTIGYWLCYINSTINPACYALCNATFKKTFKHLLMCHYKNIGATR
Assay: Allosteric potency against the dissociation of radioligand [3H]N-methylscopolamine from the porcine cardiac Muscarinic acetylcholine receptor M2
property.measured: pEC50
Note on units: pEC50 is unitless, being -log10 of a concentration expressed in mol/L.

Solved cases below.
> print(dat)
                               smiles.input                           measured.target  endpoint.value
1  O=C1c2ccccc2C(=O)N1CO/N=C/c1cc[n+](CCC[n+]2ccc(/C=N/OCN3C(=O)c4ccccc4C3=O)cc2)cc1  Muscarinic acetylcholine receptor M2 (Sus scrofa)            6.29
2  O=C1c2ccccc2C(=O)N1CCCC[n+]1ccc(CCc2cc[n+](CCCCN3C(=O)c4ccccc4C3=O)cc2)cc1  Muscarinic acetylcholine receptor M2 (Sus scrofa)            6.33

Let us move to another entry and its pEC50.
Ask: What does the data say about its pEC50? Entry: `C[N+](C)(CCCCCCC[N+](C)(C)CCCN1C(=O)c2ccccc2C1=O)CCCN1C(=O)c2ccccc2C1=O.[Br-].[Br-]`
Result: 6.43
